This collection of values is drawn from ChEMBL document CHEMBL1151742.

target.entity: Galanin receptor type 3 (Homo sapiens, UniProt O60755)
Sequence (O60755 whole entry): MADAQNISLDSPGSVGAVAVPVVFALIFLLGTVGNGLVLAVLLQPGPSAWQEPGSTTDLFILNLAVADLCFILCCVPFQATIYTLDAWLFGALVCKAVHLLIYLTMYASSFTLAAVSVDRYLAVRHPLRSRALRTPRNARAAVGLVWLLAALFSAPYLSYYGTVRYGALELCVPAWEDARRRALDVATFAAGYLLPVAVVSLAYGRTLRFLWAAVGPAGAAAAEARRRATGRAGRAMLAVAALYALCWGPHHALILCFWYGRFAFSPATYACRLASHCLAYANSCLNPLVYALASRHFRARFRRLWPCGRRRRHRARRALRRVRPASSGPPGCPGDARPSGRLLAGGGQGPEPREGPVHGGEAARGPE
experiment.notes: Binding affinity to human GalR3
readout.kind: pKd
Worth noting: pKd values are minus log10 of concentrations stated in mol/L.

Need pKd of H-GWTLNSAGYLLGPHAVGNHRSFSDKNGLT-OH , thanks. 7.16

* * *

Overview of reported Ki across a group of compounds:
target.entity: UniProtKB O43603
Sequence (O43603 whole entry): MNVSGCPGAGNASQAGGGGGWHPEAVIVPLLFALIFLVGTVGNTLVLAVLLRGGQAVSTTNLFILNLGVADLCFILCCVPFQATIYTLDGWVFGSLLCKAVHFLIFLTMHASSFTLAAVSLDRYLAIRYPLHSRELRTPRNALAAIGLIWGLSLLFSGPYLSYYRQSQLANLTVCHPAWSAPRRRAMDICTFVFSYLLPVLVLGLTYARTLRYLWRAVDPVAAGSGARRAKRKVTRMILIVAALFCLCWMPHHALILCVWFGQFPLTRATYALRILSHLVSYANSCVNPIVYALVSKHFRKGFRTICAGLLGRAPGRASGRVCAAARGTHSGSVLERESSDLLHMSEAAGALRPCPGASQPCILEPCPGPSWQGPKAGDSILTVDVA
experiment.notes: Displacement of europium-labeled galanin from human GalR2 expressed in CHO-K1 cells
Type: cell-based
Please report the result as a number followed by the unit.

Illustrative cases are given below, each with its answer.
CCCCCCCCCCCCCCCC(=O)NCCCC[C@H](NC(=O)[C@H](CCCCN)NC(=O)[C@H](CCCCN)NC(=O)CNC(=O)[C@H](CC(C)C)NC(=O)[C@H](CC(C)C)NC(=O)[C@H](Cc1ccc(O)cc1)NC(=O)CNC(=O)[C@H](C)NC(=O)[C@H](CO)NC(=O)[C@H](CC(N)=O)NC(=O)[C@H](CC(C)C)NC(=O)[C@@H](NC(=O)[C@H](Cc1c[nH]c2ccccc12)NC(=O)CNC)[C@@H](C)O)C(=O)N[C@@H](CCCCN)C(N)=O
0.075 µM
CCCCCCCCCCCCCCCC(=O)NCCCC[C@H](NC(=O)[C@H](CCCCN)NC(=O)[C@H](CCCCN)NC(=O)[C@@H]1CCCN1C(=O)CNC(=O)[C@H](CC(C)C)NC(=O)[C@H](CC(C)C)NC(=O)[C@H](Cc1ccc(O)cc1)NC(=O)CNC(=O)[C@H](C)NC(=O)[C@H](CO)NC(=O)[C@H](CC(N)=O)NC(=O)[C@H](CC(C)C)NC(=O)[C@@H](NC(=O)[C@H](Cc1c[nH]c2ccccc12)NC(=O)CN)[C@@H](C)O)C(=O)N[C@@H](CCCCN)C(N)=O
0.0225 µM

Alright, here's another compound for you.
Need Ki of CCCCCCCCCCCCCCCC(=O)NCCCC[C@H](NC(=O)[C@@H]1CCCN1C(=O)CNC(=O)[C@H](CC(C)C)NC(=O)[C@H](CC(C)C)NC(=O)[C@H](Cc1ccc(O)cc1)NC(=O)CNC(=O)[C@H](C)NC(=O)[C@H](CO)NC(=O)[C@H](CC(N)=O)NC(=O)[C@H](CC(C)C)NC(=O)[C@@H](NC(=O)[C@H](Cc1c[nH]c2ccccc12)NC(=O)CNC)[C@@H](C)O)C(=O)N[C@@H](CCCCN)C(=O)N[C@@H](CCCCN)C(=O)N[C@@H](CCCCN)C(N)=O , thanks. 0.108 µM

* * *

experiment.notes: Toxicity in CF1 mouse assessed as motor function by rotarod test
Type: organism-based
cond: in vivo
readout.kind: TD50 (mg/kg)
Number in mg/kg, nothing else.

Need TD50 of CCCCCCCCCCCCCCCC(=O)NCCCC[C@H](NC(=O)[C@H](CCCCN)NC(=O)[C@H](CCCCN)NC(=O)[C@@H]1CCCN1C(=O)CNC(=O)[C@H](CC(C)C)NC(=O)[C@H](CC(C)C)NC(=O)[C@H](Cc1ccc(O)cc1)NC(=O)CNC(=O)[C@H](C)NC(=O)[C@H](CO)NC(=O)[C@H](CC(N)=O)NC(=O)[C@H](CC(C)C)NC(=O)[C@@H](NC(=O)[C@H](Cc1c[nH]c2ccccc12)NC(=O)CNC)[C@@H](C)O)C(=O)N[C@@H](CCCCN)C(N)=O , thanks. 21
